- Test system: SR leukemia
- assay-summary: NCI-60 one-dose screen, 48 h (100 = growth as untreated, 0 = no growth, -100 = all killed)
- condition-summary: 10 µM unless noted
Compounds without any hit were thinned out: in the full panel of roughly 83,000, 20% have a hit.

{"columns": ["compound", "measured-target", "growth / %"],
 "data": [
  ["CC(=O)Nc1ccc(Sc2ccc([N+](=O)[O-])o2)cc1", "SR leukemia", 26.1],
  ["CCC(C)Oc1cc(/C=N/NC(=O)c2cnn3c2NC(c2ccccc2)C3)ccc1OC (stereo not given)", "SR leukemia", 25.8],
  ["Cn1c2c(cc(S(=O)(=O)c3ccccc3)c1=O)CCc1c-2cnn1-c1cccc(Cl)c1", "SR leukemia", 77.6],
  ["COc1cc(-c2nc(SC(C)C)nc(Nc3ccccc3C)c2C#N)cc(OC)c1OC", "SR leukemia", 110],
  ["COc1ccc(/C=C(\\C#N)c2cc3ccccc3n2C)cc1", "SR leukemia", 18.7]
]}

====

- Tested on: DU-145 prostate
- assay-summary: NCI-60 one-dose screen, 48 h
- condition-summary: 10 µM unless noted
About 83,000 compounds went through this panel and 20% of them were active in at least one assay; those are over-represented in the sample as a whole. Activity calls are given as the source filed them. Rule for the calls: active = growth percent below 10; inactive = the rest.
Outcome codes: active, inactive

{"columns": ["compound", "class-label"],
 "data": [
  ["COc1cc(/C=C/C(=O)C(=Cc2ccc(F)c(F)c2)C(=O)/C=C/c2ccc(O)c(OC)c2)ccc1O", "inactive"],
  ["COc1ccc(OC2=CC(=O)c3ccc(C)nc3C2=O)cc1", "inactive"],
  ["CN([N-]C(=O)CC(=O)[N-]N(C)C(=S)c1ccccc1)C(=S)c1ccccc1.[Cu+2]", "active"],
  ["COc1cc(C(=O)N(C(C)C)C2CCCCC2)cc(OC)c1OC", "inactive"],
  ["COc1ccc(OC)c2ncccc12", "inactive"],
  ["Cc1cc(=O)[nH]n1-c1cc(Cl)ccc1N", "inactive"],
  ["N#Cc1c(-c2cccc(F)c2)cc(-c2ccc(Br)s2)[nH]c1=O", "inactive"],
  ["Cc1ccccc1-n1nnc(C(=O)Nc2ccc(-c3ccccc3)cn2)c1C", "inactive"],
  ["N#CC1=C(N)Oc2cc(N)ccc2C1c1ccc(F)cc1 (stereo unspecified)", "inactive"],
  ["O=C(Nc1nc2ccccc2[nH]1)C(=O)Nc1nc2ccccc2[nH]1", "inactive"],
  ["O=C1c2[nH]cc(CN[C@@H]3CCCN3)c2C(=O)c2c1c(O)c1ccccc1c2O", "active"],
  ["Cc1nc2cc(Nc3nc(Nc4ccc(F)cc4)nc(N4CCN(C)CC4)n3)ccc2n1Cc1ccccc1", "inactive"],
  ["CCCCCCCC/C=C\\CCCCCCCCOc1cccc(CC(=O)NCC[N+]2(C)CCOCC2)c1", "inactive"],
  ["OC[C@@H](O)[C@@H](O)CO", "inactive"],
  ["O=C(c1ccccc1)C(Br)C(Br)c1cccc([N+](=O)[O-])c1 (stereo unspecified)", "inactive"],
  ["CCCCC(=O)N/N=C/c1cc(I)cc(I)c1O", "inactive"],
  ["COc1ccc(-c2nn(-c3ccc(NC(=O)c4ccc(Cl)c(Cl)c4)cc3)cc2-c2ccncc2)cc1Cl", "inactive"],
  ["COc1cccc(Nc2nc(NCCO)c3ccccc3n2)c1", "inactive"],
  ["COc1ccc(/C=C2\\CN(Cc3cn(CCCNc4ccnc5cc(Cl)ccc45)nn3)C/C(=C\\c3ccc(OC)c(OC)c3)C2=O)cc1OC", "inactive"],
  ["Cc1ccc(C2SCC(=O)N2NC(=O)c2[nH]c3ccc(F)cc3c2-c2ccccc2)cc1 (stereo unspecified)", "inactive"],
  ["COc1ccc(C2CC(c3cc(OC)c(OC)c(OC)c3)=NN2c2ccc(S(N)(=O)=O)cc2)cc1 (stereo unspecified)", "inactive"]
]}

====

- Tested on: SW-620 colon
- assay-summary: NCI-60 one-dose screen, 48 h (100 = growth as untreated, 0 = no growth, -100 = all killed)
- condition-summary: 10 µM unless noted
About 83,000 compounds went through this panel and 20% of them were active in at least one assay; those are over-represented in the sample as a whole. Activity calls are given as the source filed them. Rule for the calls: active = growth percent below 10; inactive = the rest.

{"columns": ["compound", "growth"],
 "data": [
  ["Cc1ccccc1-n1nnc(C(=O)Nc2nc(-c3ccccc3)c(-c3ccccc3)s2)c1C", "87.3% [50 µM] (inactive)"],
  ["CCCCCCCCCCCCSC1=CC(=O)C=CC1=O", "109% (inactive)"],
  ["COc1cc2nc(N3CCC[C@H](NC4=CC(=O)c5ccccc5C4=O)C3)nc(N)c2cc1OC", "-45.1% (active)"],
  ["CC(C)OC1=C(Cl)C(=O)c2ccccc2C1=O", "56.6% (inactive)"],
  ["COc1cccc(C2C3=C(COC3=O)N(CCO)c3cc4c(cc32)OCO4)c1 (configuration not stated)", "22.4% (inactive)"],
  ["CCSc1nnc2c3cc(Br)ccc3n(C)c2n1", "103% (inactive)"],
  ["COc1cc(C2CC(=O)Nc3c2ccc2ccccc32)cc(Br)c1OC (configuration not stated)", "20% (inactive)"],
  ["Cc1nc2cc(Nc3nc(N4CCOCC4)nc(N4CCN(C)CC4)n3)ccc2n1Cc1ccccc1", "104% (inactive)"],
  ["COc1ccc(-c2c3c(N)c4c(nc3nc3c2c(C)nn3-c2ccccc2)CCCCC4)cc1", "83.5% (inactive)"],
  ["COC(=O)c1c2c(c(C)[n+]([O-])c1C)C(=O)C=C(NCc1ccc(F)c(Cl)c1)C2=O", "-29.6% (active)"],
  ["FC(F)(F)c1ccc2c(c1)n1cnnc1c1nncn21", "108% (inactive)"],
  ["O=C(NC1CC1)c1cc2n(n1)CC(c1ccccc1)N2 (configuration not stated)", "95.4% (inactive)"],
  ["CCCCCCCCCCCCCCCC[N+]1(C)CCOCC1", "6.63% (active)"],
  ["CCN1CCN(c2nc3ccccc3c3c(=O)c4cc(F)ccc4sc23)CC1", "37.2% (inactive)"],
  ["CCOC(=O)c1c(Cl)c2c(n1Cc1cc(OC)cc(OC)c1)-c1oncc1CCC2", "16.8% (inactive)"],
  ["O=C(Nc1ccccc1)Oc1cccc2cccnc12", "48.2% (inactive)"],
  ["O=S(=O)(/N=C1C=C/C(=N\\S(=O)(=O)c2ccccc2)c2ccccc2\\1)c1ccccc1", "112% (inactive)"],
  ["FC(F)(F)Oc1ccc2c(c1)C[C@H]1C[C@@H](c3ccoc3)N2O1", "110% (inactive)"],
  ["CCOC(=O)c1cnn(CC(O)c2ccc(F)cc2)c1NC(=O)Nc1ccccc1F (configuration not stated)", "101% (inactive)"],
  ["CCCCC(=O)N/N=C/c1cc(I)cc(I)c1O", "54.6% (inactive)"],
  ["CCCCC(CCCC)(S(=O)(=O)CC)S(=O)(=O)CC", "102% (inactive)"],
  ["CC(C)(C)[Si](C)(C)OC1[C@@H](COC(N)=O)O[C@@H](n2cnc3c(N)ncnc32)[C@H]1O[Si](C)(C)C(C)(C)C (some centres not stated)", "100% (inactive)"]
]}

====

In this section, each of the molecules is paired with its reported growth.
- Tested on: OVCAR-8 ovarian
- assay-summary: NCI-60 one-dose screen, 48 h (100 = growth as untreated, 0 = no growth, -100 = all killed)
- condition-summary: 10 µM unless noted
This is part of a sample that, as a whole, favours compounds with a hit. Of some 83,000 tested, about 20% had one in any assay.

{"columns": ["molecule", "growth, %"],
 "data": [
  ["FC(F)(F)Oc1ccc2c(c1)C[C@H]1C[C@@H](c3ccoc3)N2O1", 101],
  ["O=C1c2ccccc2-c2cn(Cc3ccccc3)c3cccc(c23)C1c1cccnc1 (stereo not given)", 57.9],
  ["CCN(CC)c1ccc2c(c1)OS(=O)(=O)N=C2", 107],
  ["COc1c(Cl)ccc2c(-c3nc4cc(Cl)c(F)cc4s3)cc(=O)oc12", 62.5],
  ["O=C1/C(=C/c2ccc(Cl)cc2)CN(Cc2cn(CCCNc3ccnc4cc(Cl)ccc34)nn2)C/C1=C\\c1ccc(Cl)cc1", -42.3],
  ["Nc1nc(N)c(C=Nc2ccc(Br)cc2)c(Nc2ccc(Br)cc2)n1", 87.3],
  ["O=C1NC(=O)C(CSc2ccccc2)(c2ccccc2)N1 (stereo not given)", 99.3],
  ["CC1SC(c2ccc(Cl)cc2)N(CCc2cccs2)C1=O (stereo not given)", 4.04],
  ["CCN(CC)c1ccc(/C=C(\\C#N)c2cc3ccccc3[nH]2)cc1", 63.4],
  ["Cc1ccc(C)c2c1sc1nc3nc4sc5ccccc5n4c(=N)c3c(=O)n12", 116]
]}

Reference source for all entries: PubChem BioAssay (NCI)
